The reported numbers originate from the supplement of paper PMC10567573.

B1: ZBTB22 (parent)
chain: FSSSSQEAFAASAVGSGERRGGGP

variants of: B1; assay: protein stability index of a GFP-peptide fusion (GPS, HEK-293T) (PSI 1-6); higher = more stable; settings: c terminus: a fixed tail appended;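 further: lentivirally expressed fusions sorted by FACS into six bins by GFP to DsRed ratio, PSI derived from sequencing read proportions per bin multiplied by bin number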
Measured Metric: protein stability index
Give bare numbers.

Worked examples, 3 variants total:
S12C
2.54
G15W
2.72
S5C
2.79

For each of the items listed, what is its protein stability index?
1. R19P
2. A13G
3. S3D
4. A8K

[3.36, 3.01, 4.36, 3.79]

Here are 6 variants. What values of protein stability index were reported for them?
1. S16G
2. A10F
3. F9S
4. G15R
5. S4G
6. E7Y

1: 3.18; 2: 2.41; 3: 5.01; 4: 2.78; 5: 1.93; 6: 1.54

Please state, for each entry, its recorded protein stability index.
1. A8V
2. F1E
3. G23E
4. F1D
5. E7G

[2.11, 5.43, 3.53, 5.7, 3.12]

Give protein stability index for all variants that follow.
1. R19C
2. G15C
3. F9N
4. Q6F
5. G22K
6. A11M
7. V14K

[3.07, 2.94, 4.71, 2.18, 2.15, 3.4, 3.33]

For each of the variants below, state protein stability index.
1. F9Q
2. S2H
3. Q6R
4. R19E

1: 5.09; 2: 1.77; 3: 3; 4: 4.24

Consider the following items and state reported protein stability index for each.
1. A11Q
2. A8G
3. E18P

1. 3.44
2. 4.44
3. 2.97

Quick batch: protein stability index for everything below.
1. G21R
2. G23P

1: 3.35; 2: 3.54
